tgt: T1, soluble human insulin receptor-immunoglobulin heavy chain chimera (human, UniProt P06213 28-956)
T1 construct: extracellular domain; Heterotetramer; also called IR; sIR-Fc; not shown: immunoglobulin heavy chain constant domains replacing the transmembrane and intr
assay_method_text: phage ELISA ratios compared
Each record here notes measured IR/IGF-1R ratio comparison.
Give your answer as a number; write no unit.

Observe how each entry below is paired with its result.
EGSGFYGYFFSLLGLQG [NNRPγ-4-A9-IR] | 0.1
PVGVQGFYEGLSRLVLGRGGW [20E2B-4-F8-IGFR] | 0.1
NSRDGGFYLQLERLLGFPVTG [20E2B-3-D4-IGFR] | 0.1
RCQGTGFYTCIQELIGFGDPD [20E2B-4-H9-IGFR] | 0.2
PDLHKGFYAQLAQLIRGQLLS [20E2B-3-E3-IGFR] | 0.1

State the recorded IR/IGF-1R ratio comparison for this entry: VGRASGFPENFYDWFGRQLSLQSGEQ [H2CA-4-H6-IGFR] 0.1

Query SRAKVEAEMPDSGDPFYHKLSELLASG [B6Hα-1-A3-IR] next 0.3
